Experiment: serotonin-gated TRPC4 signal block – cell-based, second counter screen, HEK293 TRPC4/5HT1a, Fluo-4, counter-screen for TRPC4 inhibitor project, confirmation (AID 434978)
Details: Fluo-4 calcium flux, at 10 µM, serotonin added to trigger calcium flux
The source made the active and inactive calls.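 How the source made its calls: active means primary screen active whose calcium signal fell more than 3 SD beyond the full-serotonin control mean in both duplicate plates; inactive means the rest.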
Possible outcomes: t = active, f = inactive

- COc1ccc2c(C)cc(N3CCCCCC3)nc2c1: t
- COc1ccc(CCNC(=O)Cn2cnc3c(cnn3C(C)(C)C)c2=O)cc1OC: f
- c1csc(CNc2nc(-c3cccs3)nc3ccccc23)c1: t
- Cc1ccc(/C=C/C(=O)NC2CCCCCCC2)o1: f
- Cc1ccc(-n2c(C)cc(C)c(C#N)c2=O)cc1Cl: f
- CN1CCN(CCCNC(=O)CN2C(=O)COc3ccccc32)CC1: f
- COc1ccc2c(Cl)c(-c3nnc(SCC(=O)c4ccccc4)n3C)sc2c1: f
- COc1ccccc1N(C(=O)c1snc(C(N)=O)c1N)C(C(=O)NCc1ccccc1)c1ccc(O)cc1 (centres undefined): t
- CCOP(=O)(c1ccccc1)c1nc(-c2ccccc2Cl)oc1N1CCCCC1 (centres undefined): f
- CC1CC(C)CN(CCCNC(=O)C2CCCN(c3ncnc4c3nc3n4CCCCC3)C2)C1 (centres undefined): f
- Cc1cccc(CN2CCCC(C(=O)Nc3ccccc3Oc3cccnc3)C2)c1 (centres undefined): t
- COc1ccc(CN2CCC(n3nccc3NC(=O)CCc3ccccc3)CC2)c(C)c1C: f
- COc1ccc2sc(N(CCCN(C)C)C(=O)c3ccc(S(=O)(=O)N4CCCc5ccccc54)cc3)nc2c1: f
- CC(C)c1nc(CNC(=O)CC2C(=O)NCCN2Cc2ccc(F)cc2Cl)cs1 (centres undefined): f
- Cc1c(N2C(=O)/C(=C/c3ccccc3)SC2=S)c(=O)n(-c2ccccc2)n1C: f
- Cc1ccc(Nc2nc3ccccc3[nH]2)nc1: f
- Cc1cccc(C)c1OCC(=O)N1CC2(C)CC1CC(C)(C)C2 (centres undefined): f
- Cc1ccc(Oc2ccccc2/C=N/O)cc1: t
- Cc1sc(NC(=O)C2CCCCC2C(=O)O)c(C(N)=O)c1-c1ccc(C(C)(C)C)cc1 (centres undefined): t
- Cc1cccc(OCCn2c(=O)sc3ccccc32)c1: f
- CCSC1=N/C(=C\c2ccc(OC)cc2)C(=O)N1: f
- CN(C)CCCNC(=O)/C=C/c1ccc(OCc2c(F)cccc2Cl)cc1: f
- CN(C)CCNc1ccc(Cl)cc1[N+](=O)[O-]: f
- Cc1cc(Nc2ccc3c(c2)OCCO3)c2ccccc2n1: f
- COc1cccc(Oc2cncnc2-c2ccc(OC)cc2O)c1: f
- CSc1ccc(CN(C)C(C)C(=O)NCc2ccccc2)cc1 (centres undefined): f
- Cc1ccc(Cl)cc1N1CCN(C(=O)c2cccc3c(=O)c(C)c(-c4ccccc4)oc23)CC1: f
- CCN(CC)CCCN(C(=O)c1cccs1)c1nc(-c2ccc(OC)cc2)cs1: f
- COC(=O)c1cccc(Nc2c3c(nc4ccccc24)CCC3)c1: t
- COCCn1c(SCC(=O)Nc2ccccc2OC)nc2c([nH]c3ccccc32)c1=O: t
- CCN1CCN(Cc2nc3c(c(=O)[nH]c(=O)n3C)n2Cc2ccccc2Cl)CC1: f
- CCn1c(NCc2c[nH]c3ccccc23)nc2ccccc21: t
- COc1cccc(Cn2c(Oc3ccccc3)nc3c2c(=O)n(C)c(=O)n3C)c1: t
- O=C(Nc1ccccc1Oc1cccnc1)C1CCCN(Cc2ccc(F)cc2)C1 (centres undefined): t
- CC(Oc1ccc(Cl)cc1Cl)C(=O)N(C)c1ccccc1 (centres undefined): f
- CC(=O)Oc1c(C)cc(O)c2ccccc12: f
- COCCn1c(SCc2cc(C(C)=O)ccc2OC)nc2cc(Cl)ccc2c1=O: f
- Cc1cc2oc(C(=O)N(Cc3cccs3)C3CCS(=O)(=O)C3)cc(=O)c2cc1Cl (centres undefined): f
- O=S(=O)(NCCc1csc(-c2ccccc2)n1)c1cccnc1: f
- CC(=O)n1cc([C@@H]2C=C(C(=O)NCc3ccccc3)O[C@H](OCc3ccc(CO)cc3)C2)c2ccccc21: f
- Cc1ccc(CNC(=O)CCC2CCCN(Cc3cc4ccccc4o3)C2)o1 (centres undefined): f
- CN1/C(=C\C(=O)C[n+]2ccc3ccccc3c2)C(C)(C)c2ccccc21: f
- Cc1ccc(/C=C2\SC(=S)N(C(Cc3ccccc3)C(=O)O)C2=O)cc1 (centres undefined): t
- CCCN(CCC)CCNC(=O)CCC(=O)Nc1ccc2nc(N3CCOCC3)cc(C)c2c1: f

----------
Molecular target: Short transient receptor potential channel 6 (Mus musculus) (UniProt Q61143)
Sequence (Q61143 whole entry, looked up): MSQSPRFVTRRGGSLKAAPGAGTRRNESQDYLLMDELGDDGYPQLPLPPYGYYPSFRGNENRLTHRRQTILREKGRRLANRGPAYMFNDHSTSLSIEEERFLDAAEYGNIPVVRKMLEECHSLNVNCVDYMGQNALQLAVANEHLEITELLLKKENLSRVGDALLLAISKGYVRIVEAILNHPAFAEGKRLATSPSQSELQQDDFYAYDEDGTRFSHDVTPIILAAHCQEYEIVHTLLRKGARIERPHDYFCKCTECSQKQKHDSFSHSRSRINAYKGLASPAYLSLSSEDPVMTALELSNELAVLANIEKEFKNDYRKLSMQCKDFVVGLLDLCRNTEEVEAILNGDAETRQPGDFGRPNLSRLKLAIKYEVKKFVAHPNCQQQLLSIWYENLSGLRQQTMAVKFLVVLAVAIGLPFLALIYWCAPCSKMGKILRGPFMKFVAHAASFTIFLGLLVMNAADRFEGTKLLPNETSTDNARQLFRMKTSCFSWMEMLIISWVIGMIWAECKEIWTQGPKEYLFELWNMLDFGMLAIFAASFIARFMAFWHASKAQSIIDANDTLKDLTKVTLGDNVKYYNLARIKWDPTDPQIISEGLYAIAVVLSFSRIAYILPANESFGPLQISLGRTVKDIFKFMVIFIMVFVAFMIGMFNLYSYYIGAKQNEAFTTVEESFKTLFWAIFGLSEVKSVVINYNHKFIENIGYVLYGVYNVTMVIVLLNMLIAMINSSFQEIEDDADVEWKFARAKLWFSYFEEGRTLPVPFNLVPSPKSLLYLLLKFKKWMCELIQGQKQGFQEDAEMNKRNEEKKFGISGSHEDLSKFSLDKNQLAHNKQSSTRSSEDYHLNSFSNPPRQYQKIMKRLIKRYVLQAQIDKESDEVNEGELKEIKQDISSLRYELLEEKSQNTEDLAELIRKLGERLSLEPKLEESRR
Assay: positive modulators of mouse TRPC6 channel – HEK293 cells, membrane potential dye, duplicate, selectivity assay for TRPC4 potentiator project, confirmation (AID 434952)
Settings: HEK293 TRPC6, membrane potential dye fluorescence, at 10 µM, maximal acetylcholine added after compound; active compounds read high
Active and inactive are the calls of the source.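 Rule for the calls: active = compound raising the membrane signal above positive-control mean plus 3 SD in both repeats, and a primary screen hit; inactive = the rest.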
endpoint: potentiation, percent of control

• CCOC(=O)CSc1nc2c(sc(=S)n2-c2ccccc2OC)c(=O)n1-c1ccccc1OC = inactive
• COC(=O)C1=C(C)N(Cc2ccccc2)C(=S)N[C@H]1c1ccccc1 = inactive
• COc1cc(/C=C2\SC(=S)N(NS(=O)(=O)c3ccc(C)cc3)C2=O)cc(OC)c1OC = inactive
• COc1ccc(NS(=O)(=O)c2ccc3ccccc3c2)c2ncccc12 = inactive
• CCCN(CCC)CCCNC(=O)c1cc2c(=O)n(C)c3ccccc3c2n1C = inactive
• Cn1c(=O)c2c(nc(SCCN3CCCCC3)n2Cc2ccccc2)n(C)c1=O = inactive
• Oc1ccccc1Nc1nc(NCc2ccco2)c2ccccc2n1 = inactive
• Cn1c(SCCOc2ccccc2F)nc2ccccc2c1=O = inactive
• COc1cc(CNCCCN2CCOCC2)cc(Br)c1OCc1ccc(Cl)cc1 = inactive
• CCOCCCn1c(=S)[nH]c2cc(C(=O)NCCCN(CC)CC)ccc2c1=O = inactive

----------
System: TRPC4 (mouse), co-expressed with 5HT1a in HEK293
Assay: enhancement of serotonin-evoked TRPC4 response – cell-based, second counter screen, HEK293 TRPC4/5HT1a, Fluo-4, counter-screen for TRPC4 potentiator project, confirmation (AID 434979)
Settings: Fluo-4 calcium flux, at 10 µM, serotonin added at its EC20 dose
Calls of active or inactive are those of the source.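 How the source made its calls: active means signal rise over 3 SD above mean of control wells given weak agonist, in both repeats and first screen; inactive means the rest.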
Possible outcomes: active, inactive

* COC(=O)NCC(c1ccc2c(c1)OCO2)N1CCN(c2ccccc2)CC1 (configuration not stated) | inactive
* COc1ccc(Nc2nc(NCC3CCCO3)c3ccccc3n2)c(OC)c1 (configuration not stated) | inactive
* OCC1(CCc2ccccc2)CCN(Cc2ccc3nsnc3c2)CC1 | inactive
* CCCn1c(NC(=O)c2ccc(Cl)c(S(=O)(=O)N3CCCC3)c2)nc2ccccc21 | active
* Cc1ccc(N2CCN(C(=O)c3ccccc3F)CC2)c(C)c1 | inactive
* COc1ccc(C(CNC(=O)Cc2cccs2)N(C)C)cc1 (configuration not stated) | inactive
* COc1ccc(CN2CCN(c3nc4ccccc4s3)CC2)cc1 | active
* Cc1cc(N/N=C/c2ccccc2F)c2ccccc2n1 | inactive
* CCOc1ccccc1CN1CCN(Cc2cccc3nonc23)CC1CCO (configuration not stated) | inactive
* CCOCCCn1cnc2c(c1=O)c1nc3ccccc3nc1n2-c1ccc(C)cc1 | inactive
* CCCC1(c2ccccc2)NC(=O)N(CC(=O)c2[nH]c(C)c(C(=O)OCC)c2C)C1=O (configuration not stated) | active
* O=C(Nc1ccccc1Oc1cccnc1)C1CCCN(Cc2ccc(F)cc2)C1 (configuration not stated) | inactive
* COc1ccc(CCN2CCCC(CN(C)C(=O)c3ccoc3)C2)cc1 (configuration not stated) | active
* CCN1CCN(c2ncnc3sc(C)c(-c4ccccc4)c23)CC1 | inactive
* CCCN(C(=O)COC(=O)C12CCC(=O)N1c1ccccc1S2)c1c(N)n(Cc2ccccc2)c(=O)[nH]c1=O (configuration not stated) | inactive
* Cc1cc(Nc2ccc3c(c2)OCCO3)c2cccc(C)c2n1 | inactive
* Cc1ccc(/C=N/NC(=O)NC2CCCCC2)o1 | active
* CC(=O)c1ccc(N2CCN(c3ccc(S(=O)(=O)NCCCN(C)C)cc3[N+](=O)[O-])CC2)cc1 | active
* CC1CCN(CCc2nc3cc(NS(=O)(=O)c4ccc(F)cc4)ccc3n2C)CC1 | active
* CCCC1C(=O)Nc2ccccc2N1C(=O)c1ccc(C(C)(C)C)cc1 (configuration not stated) | active
* CN(C)C(CNC(=O)c1oc2ccccc2c1CSc1ncn[nH]1)c1ccco1 (configuration not stated) | inactive
* Cc1nn(-c2ccccc2)c2nc(-c3ccccc3)cc(C(=O)N3CCOCC3)c12 | active

----------
Biological target: Short transient receptor potential channel 4 (Mus musculus)
Assay: blockers of DAMGO-evoked TRPC4 calcium flux – cell-based, second round, Fluo4, HEK293 TRPC4beta/mu-opioid, 1 µM, confirmation (AID 2637)
Conditions: at 1 µM
Activity calls are given as the source filed them.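 The calls were made as follows: active = calcium signal ratio cut to more than 3 SD under the fully stimulated control mean yet still positive, in both repeats and the primary screen; inactive = the rest.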
Possible outcomes: active, inactive

• Cc1cc(N2CCCCC2)nc2ccccc12 = active
• CC(=O)Cc1nsc(NC(=O)c2csc3c2CCCC3)n1 = inactive
• Fc1ccccc1COc1ccc(Br)cc1CNCC1CCCO1 (configuration not stated) = active
• Cc1ccccc1-n1c(=O)c2c(n3cnnc13)-c1ccccc1CC21CCCCC1 = inactive
• CCN(CC)c1ccc(CNc2nc3ccccc3n2CCN2CCCCC2)cc1 = inactive
• CN1CCN(c2ccc(NC(=O)c3ccc(-c4ccc(Cl)cc4)o3)cc2)CC1 = active
• COC(=O)CC(NC(=S)NC(=O)c1ccccc1)c1ccc(Br)cc1 (configuration not stated) = inactive
• CSCC(C)N1CCC(CO)(CCCc2ccccc2)CC1 (configuration not stated) = inactive
• COC(=O)c1cc(N2CCNCC2)nc2ccccc12 = inactive
• COc1ccc(-c2n[nH]c(C)c2-c2ccccc2OC)c(O)c1 = inactive
• O=C(N/N=C/c1ccco1)C1COc2ccccc2O1 (configuration not stated) = inactive
• CC(C)Cc1nc(Cl)c(C#N)c2c1CCCC2 = inactive
